Values from PubChem BioAssay (NCI)

experimental_details: NCI Yeast Anticancer Drug Screen. Data for the rad50 strain (AID 155);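 further: 0% = growth of vehicle-only cultures of the same strain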
experimental_conditions: S. cerevisiae rad50 strain growth inhibition; at 50.0 µM
Compounds without any hit were thinned out: in the full panel of roughly 79,000, 15% have a hit. The source made the active and inactive calls. No stated cut-off is given here; in the data, active means growth inhibition above about 70%; inactive means the rest.
Outcome codes: active, inactive

>>> class("Cc1cc(C2C(O)C(c3cc(C)on3)C2(C)O)no1 (configuration not stated)")
"active"
>>> class("COc1ccc(C2=C(Cl)C(=O)N(c3ccc(Cl)cc3)C(=O)C2(Cl)Cl)cc1")
"active"
>>> class("Cn1c(=S)c2[nH]c(SCCN3CCCC3)nc2n(C)c1=O")
"active"
>>> class("NC(Cc1ccnnc1)C(=O)O (configuration not stated)")
"inactive"
>>> class("c1ccc2c(CCc3ccncc3)c[nH]c2c1")
"inactive"
>>> class("Oc1c(Cl)c(Cl)c2ncccc2c1Cl")
"inactive"
>>> class("C[N+](C)(CCCCCCOc1c(Br)cc(Br)cc1Br)Cc1ccc(Br)o1")
"active"
>>> class("COc1ccc2cc(CNCCCCCCCCNCc3ccc4cc(OC)ccc4c3)ccc2c1")
"active"
>>> class("CCN1CCC(O)(/C=C/c2cccc(C)c2)C(C(=O)/C=C/c2cccc(C)c2)C1 (configuration not stated)")
"active"
>>> class("COC(=O)CCc1c(Cc2ccc[nH]2)[nH]c(C(=O)OCc2ccccc2)c1C")
"inactive"
>>> class("Cc1[nH]nc(C(F)(F)F)c1N=NN1CCOCC1")
"active"
>>> class("O=C(CBr)Oc1ccc(-c2cccc(Br)c2)cc1")
"active"

###

experimental_details: NCI Yeast Anticancer Drug Screen. Data for the mec2-1 strain (AID 157)
experimental_conditions: S. cerevisiae mec2-1 strain, at 50.0 µM
Compounds without any hit were thinned out: in the full panel of roughly 79,000, 15% have a hit. Activity calls are given as the source filed them. No stated cut-off is given here; in the data, active means growth inhibition above about 70%; inactive means the rest.
Outcomes: yes (1) = active, no (0) = inactive

>>> class("OC(CCN1CCOCC1)C1c2ccccc2Cc2ccccc21 (configuration not stated)")
"no (0)"
>>> class("CC1(C)OC2C(COC(c3ccccc3)(c3ccccc3)c3ccccc3)OC(n3cnc4c(N)ncnc43)C2O1 (configuration not stated)")
"no (0)"
>>> class("Cc1cc(NCCCCCCCCCC[n+]2c(C)cc(N)c3ccccc32)c2ccccc2n1")
"yes (1)"
>>> class("N#CSc1ccc(O)cc1")
"yes (1)"
>>> class("O=C(Nc1c(Cl)cccc1Cl)Oc1c(Br)cc(Br)cc1Br")
"yes (1)"
>>> class("COC1OC(CI)C(OC(c2ccccc2)(c2ccccc2)c2ccccc2)C(OC(c2ccccc2)(c2ccccc2)c2ccccc2)C1OC(c1ccccc1)(c1ccccc1)c1ccccc1 (configuration not stated)")
"yes (1)"
>>> class("Cn1c(CN(Cc2nc3ccccc3n2C)Cc2nc3ccccc3n2C)nc2ccccc21")
"yes (1)"
>>> class("CN(C)C(=S)/N=c1\\ss/c(=N\\C(=S)N(C)C)n1-c1cccc(Cl)c1")
"yes (1)"
>>> class("N/N=C(/N)SCCCCCCCCCCS/C(N)=N/N")
"no (0)"
>>> class("CN(C)c1ccc(C(c2ccc(N(C)C)cc2)c2ccc3c(c2)OCO3)cc1")
"yes (1)"
>>> class("N#Cc1ccc([N+](=O)[O-])cc1C#N")
"yes (1)"
>>> class("O=c1[nH]c(=O)c2n[nH]nc2[nH]1")
"no (0)"
>>> class("N/C(=N\\N=C\\c1cc(I)cc(I)c1O)NO")
"yes (1)"
>>> class("Clc1ccc(OCCC(Cn2ccnc2)c2ccc(Cl)cc2Cl)c(Cl)c1 (configuration not stated)")
"no (0)"
>>> class("COc1ccc(/C(=C/CN2CCC3CCC(C3)C2)c2ccccc2)cc1 (configuration not stated)")
"no (0)"
>>> class("CC(=O)c1cccc(NC2C(N)C(NC(=O)N(C)C)(C(C)O)C(C)(O)C2(O)COC(=O)c2c(C)cccc2O)c1 (configuration not stated)")
"yes (1)"
>>> class("COc1ccc(C(c2ccc(N(C)C)cc2)c2ccc(N(C)C)cc2)cc1")
"yes (1)"
>>> class("CC(=O)NC1CCCCC1CC1CCCCC1 (configuration not stated)")
"no (0)"
>>> class("NS(=O)(=O)c1ccc(N=Cc2c3ccccc3nc3cc(Cl)ccc23)cc1")
"no (0)"
>>> class("COc1ccc(C2=CCC3C4CC=C5CC(O)CCC5(C)C4CCC23C)s1 (configuration not stated)")
"no (0)"
>>> class("O=C1COC(=O)/C1=C\\C=C\\c1ccccc1")
"yes (1)"
>>> class("CC(=O)Oc1ccc(/C=C/c2ccncc2)cc1")
"no (0)"

###

experimental_details: NCI Yeast Anticancer Drug Screen. Data for the mec2-1 strain (AID 157)
experimental_conditions: S. cerevisiae mec2-1 strain, at 50.0 µM, stronger effect = higher value
About 79,000 compounds went through this panel and 15% of them were active in at least one assay; those are over-represented in the sample as a whole.
Quick list: growth inhibition per entry.
assay_endpoint: growth inhibition (%)

>>> result_value("C/C(CCC1CCc2ccccc2C1)=N\\NC(N)=O (stereo not given)")
12.3
>>> result_value("COC(=O)[C@H]1[C@@H](C(C)C)O[C@@H](C(C)C)O[C@H]1C(F)(F)F")
92.5
>>> result_value("CC(=O)Oc1ccc(C(C)(C)CC(C)(C)C)cc1")
95.3
>>> result_value("CCO/C=C1\\C(=O)C=C(C)CC1c1ccc(OC)c(OC)c1OC (stereo not given)")
38
>>> result_value("CN(C)CCCN1c2cc(Cl)ccc2Sc2ccc3ccccc3c21")
99.3
>>> result_value("Clc1ccc(CNc2ccc(Cl)c(Cl)c2)cc1")
98.2
>>> result_value("O=C1c2ccccc2CC(Br)c2ccccc21 (stereo not given)")
27.4
>>> result_value("O=C(Nc1ccc(/C=C/c2ccc(NC(=O)c3cc(S(=O)(=O)O)c4cccnc4c3O)cc2S(=O)(=O)O)c(S(=O)(=O)O)c1)c1cc(S(=O)(=O)O)c2cccnc2c1O")
88.7
>>> result_value("CC(=O)OC1=Cc2ccccc2C(c2ccccc2)c2ccccc21 (stereo not given)")
9.55
>>> result_value("COc1ccc2c(Cc3cc(Cl)ccc3O)cncc2c1O")
31.6
>>> result_value("CC(=O)N1C(c2[nH]c3ccccc3c2-c2ccccc2)CCN1c1ccccc1 (stereo not given)")
54.7
>>> result_value("COc1ccc2c(c1)[n+]([O-])c(S(=O)(=O)c1ccc(C)cc1)c(N)[n+]2[O-]")
98.8
>>> result_value("OCc1ccc2c(c1)CC1(C2)Cc2cc3c(cc2C1O)CCC3 (stereo not given)")
42.4
>>> result_value("NSc1ccccn1")
93.5
>>> result_value("O=C1C=CC2C(=O)c3ccccc3C(=O)C2=C1 (stereo not given)")
63.5
>>> result_value("CN1C=Cc2ccccc2C1C(C1c2ccccc2C=CN1C)[N+](=O)[O-] (stereo not given)")
-9.95
>>> result_value("O=C(CC[P+](c1ccccc1)(c1ccccc1)c1ccccc1)c1ccccc1")
94.8
>>> result_value("Cc1ccc(OCC2CO2)c(Br)c1 (stereo not given)")
5.95
>>> result_value("CC(O)C1CCCC[N+]1(C)C (stereo not given)")
-6.9
>>> result_value("CCOc1ccccc1C(=O)Oc1cccc(C)c1")
-9.75
>>> result_value("CC1CN(CC2CCCCCCCCCCC2=O)CC(C)O1 (stereo not given)")
65.5
>>> result_value("O=C(c1ccc(Br)cc1)C1N=NCC1c1ccccc1 (stereo not given)")
64.7
>>> result_value("CC1(C)CC[C@]2(C(=O)O)[C@H](O)C[C@]3(C)C(=CC[C@@H]4[C@@]5(C)CC[C@H](OC6OCC(O)C(O)C6OC6OCC(O)C(O)C6OC6OCC(O)C(O)C6O)C(C)(C)[C@@H]5CC[C@]43C)[C@@H]2C1 (stereo not given in full)")
57.1
>>> result_value("CC(C)CCCC(C)C1CCC2(C)C3=CCC4C(C)(CCC(O)C4(C)C)C3=CCC12C (stereo not given)")
73
>>> result_value("CCCCCCCCCCCCCCCC(=O)N1CC[N+](C)(C)CC1")
99.6
>>> result_value("Cc1cccc(NC(=O)CCc2ccc(Cl)cc2)n1")
2.55
>>> result_value("O=[N+]([O-])c1ccccc1C1CN=NN1c1ccccc1 (stereo not given)")
17.9
>>> result_value("NC(=S)Nc1c(Br)cc(Br)cc1Br")
33.5
>>> result_value("CCCCC(Cc1ccccc1)(C(=O)O)c1ccccc1 (stereo not given)")
98.2
>>> result_value("O=C1CCCC1C(=O)OC1CCCC1 (stereo not given)")
-15
>>> result_value("COc1cc2c(c(O)c1C)C(=O)C(Cl)=CC2=O")
99.2
>>> result_value("O=C1NC(=O)C(c2ccccc2)(c2ccccc2)C2CC3c4[nH]c5ccccc5c4CCN3CC12 (stereo not given)")
59.1
>>> result_value("Oc1ccc(Cc2cccc(Br)c2)c(O)c1")
99.3
>>> result_value("COc1ccc2c(c1)CCc1c(-c3noc4c3CCc3cc(OC)ccc3-4)noc1-2")
19
>>> result_value("CCOSc1ccccc1")
32.7
>>> result_value("CCCN(CCC)C(=O)CCC(C)=O")
-7.5
>>> result_value("O=C1N(Cc2ccccc2)CC1(c1ccccc1)C1CCCCC1O (stereo not given)")
7.8
>>> result_value("O=C1c2ccccc2C(=O)N1C(=NCc1ccccc1)c1ccccc1")
63.4
>>> result_value("COc1ccc(C2Cc3cc(OC)ccc3C2=O)cc1 (stereo not given)")
29.4
>>> result_value("Cn1nc(N)c2cccnc21")
1.7
>>> result_value("[N-]=[N+]=NC1=C(C(=O)c2ccccc2)C(=O)c2cccc3cccc1c23")
20.4
>>> result_value("CN(Cc1cnc2nc(N[Si](C)(C)C)nc(N[Si](C)(C)C)c2n1)c1ccc(C(=O)NC(CCC(=O)O[Si](C)(C)C)C(=O)O[Si](C)(C)C)cc1 (stereo not given)")
98.3
>>> result_value("CCNc1cc(N)[n+](CC)c2n[nH]c(/N=C/c3cc(Cl)cc(Cl)c3O)c12")
87.5
>>> result_value("CN(C)c1ccc(C(O)(Cc2cccnc2)c2ccc(N(C)C)cc2)cc1")
36.8
>>> result_value("O=C1c2sccc2-c2cccc3cccc1c23 (tested in a mixture with another compound)")
98
